- Measured Target: interaction between VCAM-1 and VLA-4 (Homo sapiens, UniProt P05556+P13612)
- Construct: supplied in their natural form as surface molecules on human U937 cells; the partner hVCAM-1(1-3)-IgG was made in house in transfected COS cells (ATCC CRL1651) and used as culture supernatant
- Sequence (P13612 34-1032): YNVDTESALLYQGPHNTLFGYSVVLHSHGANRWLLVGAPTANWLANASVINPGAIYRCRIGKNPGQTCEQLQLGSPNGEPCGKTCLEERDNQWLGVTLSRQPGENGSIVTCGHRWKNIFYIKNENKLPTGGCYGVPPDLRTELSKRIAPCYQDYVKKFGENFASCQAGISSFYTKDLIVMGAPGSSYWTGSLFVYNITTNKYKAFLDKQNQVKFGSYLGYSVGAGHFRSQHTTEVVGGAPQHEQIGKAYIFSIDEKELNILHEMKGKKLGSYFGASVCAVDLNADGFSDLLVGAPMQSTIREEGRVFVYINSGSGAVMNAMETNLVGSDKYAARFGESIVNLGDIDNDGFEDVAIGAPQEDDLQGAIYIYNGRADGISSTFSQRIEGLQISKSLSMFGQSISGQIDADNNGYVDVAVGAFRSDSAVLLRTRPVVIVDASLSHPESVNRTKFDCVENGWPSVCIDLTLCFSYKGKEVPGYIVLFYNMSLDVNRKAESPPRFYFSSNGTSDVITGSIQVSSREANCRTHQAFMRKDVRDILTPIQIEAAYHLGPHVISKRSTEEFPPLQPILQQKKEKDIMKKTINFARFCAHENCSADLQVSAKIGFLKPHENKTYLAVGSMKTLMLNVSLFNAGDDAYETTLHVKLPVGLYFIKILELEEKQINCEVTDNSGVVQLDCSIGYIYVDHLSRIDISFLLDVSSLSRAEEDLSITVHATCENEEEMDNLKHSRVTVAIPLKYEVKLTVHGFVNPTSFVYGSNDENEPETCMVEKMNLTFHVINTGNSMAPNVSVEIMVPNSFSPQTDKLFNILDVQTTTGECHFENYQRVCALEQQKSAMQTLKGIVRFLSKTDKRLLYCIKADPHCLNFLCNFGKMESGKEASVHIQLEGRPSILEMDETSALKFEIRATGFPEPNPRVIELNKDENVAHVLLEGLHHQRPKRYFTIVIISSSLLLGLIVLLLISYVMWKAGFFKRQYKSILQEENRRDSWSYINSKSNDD
- Sequence (P05556 21-798): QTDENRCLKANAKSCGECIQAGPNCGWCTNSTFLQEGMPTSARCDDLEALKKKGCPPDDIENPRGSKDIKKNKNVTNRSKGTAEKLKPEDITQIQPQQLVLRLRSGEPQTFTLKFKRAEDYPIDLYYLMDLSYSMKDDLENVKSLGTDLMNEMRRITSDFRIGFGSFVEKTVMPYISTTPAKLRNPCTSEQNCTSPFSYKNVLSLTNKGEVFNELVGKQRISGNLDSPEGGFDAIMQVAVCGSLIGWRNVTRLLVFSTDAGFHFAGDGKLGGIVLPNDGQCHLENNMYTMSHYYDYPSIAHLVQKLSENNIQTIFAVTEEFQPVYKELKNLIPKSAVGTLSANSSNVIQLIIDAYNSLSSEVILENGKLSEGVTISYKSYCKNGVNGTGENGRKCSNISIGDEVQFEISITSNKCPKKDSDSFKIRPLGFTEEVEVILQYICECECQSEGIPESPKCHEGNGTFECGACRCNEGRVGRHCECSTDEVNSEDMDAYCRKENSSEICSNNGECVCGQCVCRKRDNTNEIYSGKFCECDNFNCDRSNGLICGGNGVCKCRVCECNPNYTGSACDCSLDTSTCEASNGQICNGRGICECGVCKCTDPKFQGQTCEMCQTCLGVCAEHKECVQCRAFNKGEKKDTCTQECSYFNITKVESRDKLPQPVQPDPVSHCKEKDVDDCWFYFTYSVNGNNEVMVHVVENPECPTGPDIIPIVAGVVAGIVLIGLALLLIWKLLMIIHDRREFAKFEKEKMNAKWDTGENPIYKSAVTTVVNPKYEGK
- Protocol Notes: U937/VCAM-1 cell adhesion test (adhesion of U937 cells to hVCAM-1(1-3)-IgG)
- Cond: inhibition of adhesion of human U937 cells (ATCC CRL 1593) to hVCAM-1(1-3)-IgG
Structures can show the parent of a compound that is named as a salt.
Quantity Name: pIC50
As a rule, pIC50 stands for the negative log10 of the concentration, concentration in M.

Compound: COc1ccc([C@H](CC(=O)O)NC(=O)[C@H](CC(C)C)N2C(=O)N(Cc3ccc(NC(=O)Nc4ccccc4C)cc3)C3(CCCCC3)C2=O)c(OC)c1 [Example 30, sodium salt]
pIC50: 8.44
--
Compound: COc1ccc([C@H](CC(=O)O)NC(=O)[C@H](CC(C)C)N2C(=O)N(Cc3ccc(NC(=O)Nc4ccccc4C)cc3)C3(CCCCC3)C2=O)cc1OC [Example 32]
pIC50: 9.22
--
Compound: COc1cccc([C@H](CC(=O)O)NC(=O)[C@H](CC(C)C)N2C(=O)N(Cc3ccc(NC(=O)Nc4ccccc4)cc3)C3(CCCCC3)C2=O)c1 [Example 22]
pIC50: 8.17

Which pIC50 value belongs to COc1ccc([C@H](CC(=O)O)NC(=O)[C@H](CC(C)C)N2C(=O)N(Cc3ccc(NC(=O)Nc4ccccc4)cc3)C3(CCCCC3)C2=O)cc1OC [Example 21] ?
8.52

* * *

- Measured Target: interaction between VCAM-1 and VLA-4 (Homo sapiens, UniProt P05556+P13612)
- Construct: supplied in their natural form as surface molecules on human U937 cells; the partner hVCAM-1(1-3)-IgG was made in house in transfected COS cells (ATCC CRL1651) and used as culture supernatant
- Protocol Notes: U937/VCAM-1 cell adhesion test (adhesion of U937 cells to hVCAM-1(1-3)-IgG)
- Cond: inhibition of adhesion of human U937 cells (ATCC CRL 1593) to hVCAM-1(1-3)-IgG
Ranges used to classify IC50: low-valued: < 2 nM; mid-valued: ≥ 2 nM and < 3 nM; high-valued: ≥ 3 nM

Molecule: COc1ccc([C@H](CC(=O)O)NC(=O)[C@H](CC(C)C)N2C(=O)N(Cc3ccc(NC(=O)Nc4ccccc4C)cc3)C3(CCCCC3)C2=O)cc1 [Example 26]
Measured Target: interaction between VCAM-1 and VLA-4 (Homo sapiens, UniProt P05556+P13612)
Category Label: mid-valued

Tag the class for COc1cccc([C@H](CC(=O)O)NC(=O)[C@H](CC(C)C)N2C(=O)N(Cc3ccc(NC(=O)Nc4ccccc4C)cc3)C3(CCCCC3)C2=O)c1
low-valued

Check COc1cc(CN2C(=O)N([C@@H](CC(C)C)C(=O)N[C@@H](CC(=O)O)c3ccc(OC)c(OC)c3)C(=O)C23CCCCC3)ccc1NC(=O)Nc1ccccc1C [Example 37] too.
low-valued

Check COc1ccc([C@H](CC(=O)O)NC(=O)[C@H](CC(C)C)N2C(=O)N(Cc3ccc(NC(=O)Nc4ccccc4C)cc3)C3(CCCCC3)C2=O)c(OC)c1 [Example 29] too.
low-valued

Check Cc1ccccc1NC(=O)Nc1ccc(CN2C(=O)N([C@@H](CC(C)C)C(=O)N[C@@H](CC(=O)O)c3ccccc3)C(=O)C23CCCCC3)cc1 [Example 23] too.
high-valued

Check Cc1ccccc1NC(=O)Nc1ccc(CN2C(=O)N([C@@H](CC(C)C)C(=O)N[C@H](C)CC(=O)O)C(=O)C23CCCCC3)cc1 [Example 24] too.
low-valued

Check CC(C)C[C@@H](C(=O)N[C@H](C)CC(=O)O)N1C(=O)N(Cc2ccc(NC(=O)Nc3ccccc3)cc2)C2(CCCCC2)C1=O too.
high-valued

Check COc1ccc([C@H](CC(=O)O)NC(=O)[C@H](CC(C)C)N2C(=O)N(Cc3ccc(NC(=O)Nc4ccccc4)cc3)C3(CCCCC3)C2=O)cc1 [Example 16] too.
high-valued

Check COc1ccc([C@H](CC(=O)O)NC(=O)[C@H](CC2CC2)N2C(=O)N(Cc3ccc(NC(=O)Nc4ccccc4C)cc3)C3(CCCCC3)C2=O)c(OC)c1 [Example 40] too.
mid-valued

Check COc1ccc([C@H](CC(=O)O)NC(=O)[C@H](CC(C)C)N2C(=O)N(Cc3ccc(NC(=O)Nc4ccccc4)cc3)C3(CCCCC3)C2=O)cc1OC [Example 20] too.
low-valued

Check Cc1ccccc1NC(=O)Nc1ccc(CN2C(=O)N([C@@H](CC(C)C)C(=O)N[C@@H](CC(=O)O)c3ccc4c(c3)OCCO4)C(=O)C23CCCCC3)cc1 [Example 34] too.
low-valued

Check COc1ccc([C@H](CC(=O)O)NC(=O)[C@H](CC(C)C)N2C(=O)N(Cc3ccc(NC(=O)Nc4ccccc4C)cc3)C3(CCCCC3)C2=O)cc1 [Example 27] too.
high-valued

The reported numbers originate from patent US6399643B1.
